Target: UniProtKB Q9BZ95
Sequence (Q9BZ95 whole entry): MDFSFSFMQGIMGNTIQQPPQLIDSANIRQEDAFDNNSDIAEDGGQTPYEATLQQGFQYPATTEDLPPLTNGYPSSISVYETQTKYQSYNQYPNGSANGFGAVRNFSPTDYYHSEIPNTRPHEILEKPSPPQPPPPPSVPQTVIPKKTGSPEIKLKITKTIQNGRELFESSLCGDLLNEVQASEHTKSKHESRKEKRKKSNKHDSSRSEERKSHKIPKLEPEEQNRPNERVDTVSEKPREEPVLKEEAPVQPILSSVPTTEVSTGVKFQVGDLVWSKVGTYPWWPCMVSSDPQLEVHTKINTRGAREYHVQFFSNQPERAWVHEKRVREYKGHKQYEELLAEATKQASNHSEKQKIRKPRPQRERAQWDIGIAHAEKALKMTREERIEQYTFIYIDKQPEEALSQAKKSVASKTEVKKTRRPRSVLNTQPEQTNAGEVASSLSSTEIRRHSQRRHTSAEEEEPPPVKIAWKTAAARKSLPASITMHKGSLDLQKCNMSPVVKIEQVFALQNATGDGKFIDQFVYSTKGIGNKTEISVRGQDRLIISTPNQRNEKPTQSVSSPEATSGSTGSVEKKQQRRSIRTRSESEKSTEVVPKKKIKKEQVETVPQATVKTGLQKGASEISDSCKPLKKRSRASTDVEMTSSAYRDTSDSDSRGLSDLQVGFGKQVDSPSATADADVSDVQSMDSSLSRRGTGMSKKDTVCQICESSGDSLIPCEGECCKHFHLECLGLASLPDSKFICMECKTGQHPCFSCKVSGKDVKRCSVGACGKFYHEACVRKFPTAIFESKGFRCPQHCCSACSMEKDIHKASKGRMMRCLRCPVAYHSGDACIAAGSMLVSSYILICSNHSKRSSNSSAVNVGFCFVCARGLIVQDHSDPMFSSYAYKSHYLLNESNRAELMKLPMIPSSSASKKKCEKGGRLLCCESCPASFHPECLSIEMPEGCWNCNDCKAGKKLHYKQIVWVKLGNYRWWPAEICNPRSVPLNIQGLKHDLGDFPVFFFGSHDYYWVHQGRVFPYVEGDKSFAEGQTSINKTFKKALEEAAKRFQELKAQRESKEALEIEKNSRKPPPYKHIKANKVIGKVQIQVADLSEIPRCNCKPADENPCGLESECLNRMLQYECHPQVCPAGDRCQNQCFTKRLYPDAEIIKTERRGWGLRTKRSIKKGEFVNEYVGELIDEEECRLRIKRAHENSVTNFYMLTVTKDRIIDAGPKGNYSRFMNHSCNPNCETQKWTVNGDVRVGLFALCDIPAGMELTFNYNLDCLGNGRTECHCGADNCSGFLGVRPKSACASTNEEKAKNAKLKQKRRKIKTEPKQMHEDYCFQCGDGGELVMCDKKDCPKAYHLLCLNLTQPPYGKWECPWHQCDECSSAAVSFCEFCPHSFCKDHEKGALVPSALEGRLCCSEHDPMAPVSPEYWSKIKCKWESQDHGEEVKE
Assay: Inhibition of NSD3 PWWP1 domain (unknown origin) assessed as […] by SPR analysis
Measured endpoint: Kd

> print(dat)
                                chem.smiles       test.system  obs.value
1      Cc1cc(CN)cc(C)c1-c1ncn(C)c1-c1ccncc1  UniProtKB Q9BZ95     9.7 µM
2  Cc1noc(C)c1-c1ncn(C)c1-c1ccnc2cc(F)ccc12  UniProtKB Q9BZ95     6.8 µM
